# assay-protocol: BSK_CASM3C_SRB: Viability Assessment in the BioMAP Diversity Plus: CASM3C Assay (AID 2283050);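 also: total protein by SRB staining as cytotoxicity measure in parallel cultures; cells exposed to compound for 24 h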
# protocol-conditions: primary human coronary artery smooth muscle cells
The source made the active and inactive calls. The calls were made as follows: active = hit-call score of the fitted dose curve at least 0.9, where 1 is the maximum; inactive = score below 0.9.
Labels: 1 for active, -1 for inactive

{"molecule": "N#CC(CCc1ccc(Cl)cc1)(Cn1cncn1)c1ccccc1 (stereo unspecified)", "class-name": -1}
{"molecule": "COc1ccc(C(c2ccc(OC)cc2)C(Cl)(Cl)Cl)cc1", "class-name": 1}
{"molecule": "CCOC(=O)C(Cl)Cc1cc(-n2nc(C)n(C(F)F)c2=O)c(F)cc1Cl (stereo unspecified)", "class-name": -1}
{"molecule": "CCCN(CCC)c1c([N+](=O)[O-])cc(S(N)(=O)=O)cc1[N+](=O)[O-]", "class-name": 1}
{"molecule": "CCc1nn(C)c(C(=O)NCc2ccc(C(C)(C)C)cc2)c1Cl", "class-name": -1}
{"molecule": "C#CCOS(=O)OC1CCCCC1Oc1ccc(C(C)(C)C)cc1 (stereo unspecified)", "class-name": 1}

The measured values listed here are drawn from PubChem BioAssay (EPA / NIEHS).
